Tested on: MDA-MB-231 breast
Assay: NCI-60 one-dose screen, 48 h
Conditions: 10 µM unless noted
The panel holds about 83,000 compounds, 20% with a hit somewhere; the sample as a whole holds those more often. Calls of active or inactive are those of the source. How the source made its calls: active means growth percent below 10; inactive means the rest.
Respond with a class label; see active, inactive

Use these answered entries as a reference point.
>>> category_label("C=C1CCC2C3(C)COC(c4ccccc4)OC3CCC2(C)C1CC(Sc1ccccc1)C1=CCOC1=O (stereo not given)")
"inactive"
>>> category_label("Cc1cc(=O)oc2cc(OCCCCOc3ccc(/C=C/C(=O)Nc4ccccc4N)cc3)ccc12")
"inactive"

IN: Outcome? CCOC(=O)COc1c(OC)c(OC)cc2oc(-c3cccc(C(=O)Nc4ccc(Cl)cc4)c3)cc(=O)c12
OUT: inactive

IN: Outcome? COc1ccc2c(c1)c(/C=N/Nc1ccc3ccccc3n1)cn2C
OUT: active

IN: Outcome? O=C(CSc1nc2ccccc2c(=O)[nH]1)NCCN1CCCCC1
OUT: inactive

Attribution: PubChem BioAssay (NCI)
